Assignment: determine reported ΔΙ/Ιο (%) BSA fluorescence quenching for the given compounds.
- tested-on: BSA (Bos taurus, UniProt P02769)
- Construct: purchased Sigma-Aldrich Co
- Sequence (P02769 25-607): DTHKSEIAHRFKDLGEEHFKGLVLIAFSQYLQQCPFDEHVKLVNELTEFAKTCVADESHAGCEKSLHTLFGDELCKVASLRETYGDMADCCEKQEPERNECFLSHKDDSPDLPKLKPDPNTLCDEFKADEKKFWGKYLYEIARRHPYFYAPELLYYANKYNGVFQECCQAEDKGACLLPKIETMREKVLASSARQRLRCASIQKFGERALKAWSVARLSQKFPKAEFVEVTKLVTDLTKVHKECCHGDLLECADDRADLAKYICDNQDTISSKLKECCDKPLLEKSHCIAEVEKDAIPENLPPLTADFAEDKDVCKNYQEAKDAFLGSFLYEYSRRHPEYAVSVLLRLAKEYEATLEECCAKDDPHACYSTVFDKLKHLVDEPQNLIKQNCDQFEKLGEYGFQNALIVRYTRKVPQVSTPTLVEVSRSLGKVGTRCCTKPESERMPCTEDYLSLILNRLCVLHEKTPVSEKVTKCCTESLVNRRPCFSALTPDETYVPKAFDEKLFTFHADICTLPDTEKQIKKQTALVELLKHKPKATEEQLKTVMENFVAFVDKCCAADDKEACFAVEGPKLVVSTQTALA
- assay-procedure: BSA fluorescence quenching
- Assay type: binding, bovine
- test-conditions: BSA 3 μM
Lab book: enter the figure in %, no units written.

Inquiry: Input COc1ccc(C=O)c([O-])c1.COc1ccc(C=O)c([O-])c1.[Pd+2] [Complex 5, [Pd(4-OMe-salo)2]] , output reported ΔΙ/Ιο (%) BSA fluorescence quenching.
Reply text: 97.2

Inquiry: Input O=Cc1cc(Br)cc(Br)c1[O][Pd][O]c1c(Br)cc(Br)cc1C=O [Complex 2, [Pd(3,5-diBr-salo)2]] , output reported ΔΙ/Ιο (%) BSA fluorescence quenching.
Reply text: 97.5

Inquiry: Input O=Cc1cc(F)ccc1[O-].O=Cc1cc(F)ccc1[O-].[Pd+2] [Complex 4, [Pd(5-F-salo)2]] , output reported ΔΙ/Ιο (%) BSA fluorescence quenching.
Reply text: 85.7

Inquiry: Input O=Cc1cc(Cl)cc(Cl)c1[O-].O=Cc1cc(Cl)cc(Cl)c1[O-].[Pd+2] [Complex 3, [Pd(3,5-diCl-salo)2]] , output reported ΔΙ/Ιο (%) BSA fluorescence quenching.
Reply text: 97.2

Inquiry: Input CCN(CC)c1ccc(C=O)c([O][Pd][O]c2cc(N(CC)CC)ccc2C=O)c1 [Complex 1, [Pd(4-Et2N-salo)2]] , output reported ΔΙ/Ιο (%) BSA fluorescence quenching.
Reply text: 92.9

---

Assignment: determine reported kq (EB-DNA quenching constant) for the given molecules.
- Tested on: EB-DNA adduct (CT DNA)
- assay-procedure: EB-displacement from EB-DNA (fluorescence)
- Assay type: binding, calf
- test-conditions: τo = 23 ns

Inquiry: Input CCN(CC)c1ccc(C=O)c([O][Pd][O]c2cc(N(CC)CC)ccc2C=O)c1 [Complex 1, [Pd(4-Et2N-salo)2]] , output reported kq (EB-DNA quenching constant).
Reply text: 4.49 (±0.09) × 10^12 M^−1s^−1

Inquiry: Input O=Cc1cc(F)ccc1O [5-F-saloH, 5-fluoro-salicylaldehyde, reference compound] , output reported kq (EB-DNA quenching constant).
Reply text: 1.73 (±0.05) × 10^12 M^−1s^−1

Inquiry: Input COc1ccc(C=O)c([O-])c1.COc1ccc(C=O)c([O-])c1.[Pd+2] [Complex 5, [Pd(4-OMe-salo)2]] , output reported kq (EB-DNA quenching constant).
Reply text: 1.85 (±0.04) × 10^12 M^−1s^−1

Inquiry: Input O=Cc1cc(F)ccc1[O-].O=Cc1cc(F)ccc1[O-].[Pd+2] [Complex 4, [Pd(5-F-salo)2]] , output reported kq (EB-DNA quenching constant).
Reply text: 2.48 (±0.04) × 10^12 M^−1s^−1

Inquiry: Input CCN(CC)c1ccc(C=O)c(O)c1 [4-Et2N-saloH, 4-diethylamino-salicylaldehyde, reference compound] , output reported kq (EB-DNA quenching constant).
Reply text: 1.25 (±0.03) × 10^12 M^−1s^−1

Inquiry: Input O=Cc1cc(Cl)cc(Cl)c1[O-].O=Cc1cc(Cl)cc(Cl)c1[O-].[Pd+2] [Complex 3, [Pd(3,5-diCl-salo)2]] , output reported kq (EB-DNA quenching constant).
Reply text: 3.27 (±0.08) × 10^12 M^−1s^−1

Inquiry: Input O=Cc1cc(Br)cc(Br)c1[O][Pd][O]c1c(Br)cc(Br)cc1C=O [Complex 2, [Pd(3,5-diBr-salo)2]] , output reported kq (EB-DNA quenching constant).
Reply text: 4.35 (±0.10) × 10^12 M^−1s^−1

---

Assignment: determine reported BSA-binding constant K, Marker: Ibuprofen for the given compounds.
- tested-on: BSA (Bos taurus)
- Construct: purchased Sigma-Aldrich Co
- assay-procedure: Competitive BSA-fluorescence studies with warfarin and ibuprofen
- Format: binding, bovine
- test-conditions: ibuprofen 3 μM

Inquiry: Input O=Cc1cc(Cl)cc(Cl)c1[O-].O=Cc1cc(Cl)cc(Cl)c1[O-].[Pd+2] [Complex 3, [Pd(3,5-diCl-salo)2]] , output reported BSA-binding constant K, Marker: Ibuprofen.
Reply text: 2.89 (±0.10) × 10^5 M^−1

Inquiry: Input CCN(CC)c1ccc(C=O)c([O][Pd][O]c2cc(N(CC)CC)ccc2C=O)c1 [Complex 1, [Pd(4-Et2N-salo)2]] , output reported BSA-binding constant K, Marker: Ibuprofen.
Reply text: 8.94 (±0.63) × 10^4 M^−1

Inquiry: Input O=Cc1cc(F)ccc1[O-].O=Cc1cc(F)ccc1[O-].[Pd+2] [Complex 4, [Pd(5-F-salo)2]] , output reported BSA-binding constant K, Marker: Ibuprofen.
Reply text: 9.27 (±0.48) × 10^4 M^−1

Inquiry: Input COc1ccc(C=O)c([O-])c1.COc1ccc(C=O)c([O-])c1.[Pd+2] [Complex 5, [Pd(4-OMe-salo)2]] , output reported BSA-binding constant K, Marker: Ibuprofen.
Reply text: 6.52 (±0.46) × 10^4 M^−1

Inquiry: Input O=Cc1cc(Br)cc(Br)c1[O][Pd][O]c1c(Br)cc(Br)cc1C=O [Complex 2, [Pd(3,5-diBr-salo)2]] , output reported BSA-binding constant K, Marker: Ibuprofen.
Reply text: 1.05 (±0.09) × 10^5 M^−1

---

Assignment: determine reported MIC E. coli for the given compounds.
- Tested on: Escherichia coli NCTC 29212
- assay-procedure: MIC determination
- Assay type: cell-based
- test-conditions: 24 h
- Description: S2 Antibacterial activity The antimicrobial activity of the compounds was evaluated by determining their respective MIC values towards two Gram–(–) (Escherichia coli NCTC 29212 (E. coli) and Xanthomonas campestris ATCC 1395 (X. campestris)) and two Gram–(+) (Staphylococcus aureus ATCC 6538 (S. aureus) and Bacillus subtilis ATCC 6633 (B. subtilis)) bacterial species. Cultures of these microbial strains were grown on a rich selective agar medium and stored at 4°C. […]
Lab book: enter the figure in µg/mL, no units written.

Inquiry: Input O=Cc1cc(Br)cc(Br)c1[O][Pd][O]c1c(Br)cc(Br)cc1C=O [Complex 2, [Pd(3,5-diBr-salo)2]] , output reported MIC E. coli.
Reply text: 25

Inquiry: Input O=Cc1cc(F)ccc1[O-].O=Cc1cc(F)ccc1[O-].[Pd+2] [Complex 4, [Pd(5-F-salo)2]] , output reported MIC E. coli.
Reply text: 100

Inquiry: Input COc1ccc(C=O)c([O-])c1.COc1ccc(C=O)c([O-])c1.[Pd+2] [Complex 5, [Pd(4-OMe-salo)2]] , output reported MIC E. coli.
Reply text: 100

Inquiry: Input CCN(CC)c1ccc(C=O)c([O][Pd][O]c2cc(N(CC)CC)ccc2C=O)c1 [Complex 1, [Pd(4-Et2N-salo)2]] , output reported MIC E. coli.
Reply text: 100

Inquiry: Input O=Cc1cc(Cl)cc(Cl)c1[O-].O=Cc1cc(Cl)cc(Cl)c1[O-].[Pd+2] [Complex 3, [Pd(3,5-diCl-salo)2]] , output reported MIC E. coli.
Reply text: 25

---

- tested-on: HSA (Homo sapiens, UniProt P02768)
- Construct: purchased Sigma-Aldrich Co
- Sequence (P02768 25-609): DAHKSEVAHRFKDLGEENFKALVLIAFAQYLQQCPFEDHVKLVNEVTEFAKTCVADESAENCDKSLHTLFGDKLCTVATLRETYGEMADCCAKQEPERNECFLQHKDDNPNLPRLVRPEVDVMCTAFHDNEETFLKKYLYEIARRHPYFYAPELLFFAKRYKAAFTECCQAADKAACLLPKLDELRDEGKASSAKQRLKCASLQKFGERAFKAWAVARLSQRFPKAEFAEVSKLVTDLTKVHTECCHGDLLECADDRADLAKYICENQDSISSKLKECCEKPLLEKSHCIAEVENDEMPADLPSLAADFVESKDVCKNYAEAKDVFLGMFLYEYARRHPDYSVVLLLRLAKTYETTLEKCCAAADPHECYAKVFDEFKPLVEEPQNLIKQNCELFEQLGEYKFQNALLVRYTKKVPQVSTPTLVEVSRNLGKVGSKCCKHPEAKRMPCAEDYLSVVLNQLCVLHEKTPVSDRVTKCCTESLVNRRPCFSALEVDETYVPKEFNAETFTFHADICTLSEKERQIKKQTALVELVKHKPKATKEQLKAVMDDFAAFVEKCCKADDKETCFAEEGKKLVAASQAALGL
- assay-procedure: Competitive HSA-fluorescence studies with warfarin and ibuprofen
- Assay type: binding
- test-conditions: read-out: HSA-binding constant K, Marker: Warfarin; warfarin
Assignment: determine reported pKd for the given molecules.
Note: pKd values are expressed as the negative base-10 logarithm of concentration in M.

Inquiry: Input CCN(CC)c1ccc(C=O)c(O)c1 [4-Et2N-saloH, 4-diethylamino-salicylaldehyde, reference compound] , output reported pKd.
Reply text: 5.36

Inquiry: Input O=Cc1cc(F)ccc1O [5-F-saloH, 5-fluoro-salicylaldehyde, reference compound] , output reported pKd.
Reply text: 4.48

Inquiry: Input COc1ccc(C=O)c(O)c1 [4-OMe-saloH, 4-methoxy-salicylaldehyde, reference compound] , output reported pKd.
Reply text: 4.22

---

Assignment: determine reported KSV (Stern–Volmer constant), EB-DNA for the given compounds.
- System: EB-DNA adduct (CT DNA)
- assay-procedure: EB-displacement from EB-DNA (fluorescence)
- Format: binding, calf

Inquiry: Input CCN(CC)c1ccc(C=O)c(O)c1 [4-Et2N-saloH, 4-diethylamino-salicylaldehyde, reference compound] , output reported KSV (Stern–Volmer constant), EB-DNA.
Reply text: 2.89 (±0.07) × 10^4 M^−1

Inquiry: Input O=Cc1cc(F)ccc1[O-].O=Cc1cc(F)ccc1[O-].[Pd+2] [Complex 4, [Pd(5-F-salo)2]] , output reported KSV (Stern–Volmer constant), EB-DNA.
Reply text: 5.71 (±0.10) × 10^4 M^−1

Inquiry: Input O=Cc1cc(Cl)cc(Cl)c1[O-].O=Cc1cc(Cl)cc(Cl)c1[O-].[Pd+2] [Complex 3, [Pd(3,5-diCl-salo)2]] , output reported KSV (Stern–Volmer constant), EB-DNA.
Reply text: 7.53 (±0.18) × 10^4 M^−1

Inquiry: Input O=Cc1cc(Br)cc(Br)c1[O][Pd][O]c1c(Br)cc(Br)cc1C=O [Complex 2, [Pd(3,5-diBr-salo)2]] , output reported KSV (Stern–Volmer constant), EB-DNA.
Reply text: 1.00 (±0.02) × 10^5 M^−1

Inquiry: Input COc1ccc(C=O)c([O-])c1.COc1ccc(C=O)c([O-])c1.[Pd+2] [Complex 5, [Pd(4-OMe-salo)2]] , output reported KSV (Stern–Volmer constant), EB-DNA.
Reply text: 4.26 (±0.08) × 10^4 M^−1

Inquiry: Input CCN(CC)c1ccc(C=O)c([O][Pd][O]c2cc(N(CC)CC)ccc2C=O)c1 [Complex 1, [Pd(4-Et2N-salo)2]] , output reported KSV (Stern–Volmer constant), EB-DNA.
Reply text: 1.03 (±0.02) × 10^5 M^−1

Inquiry: Input O=Cc1cc(F)ccc1O [5-F-saloH, 5-fluoro-salicylaldehyde, reference compound] , output reported KSV (Stern–Volmer constant), EB-DNA.
Reply text: 3.79 (±0.11) × 10^4 M^−1

Source: paper PMC9323974
